# credit: patent US20240150451A1

Here, each record is paired with measured peptide ELISA signal (no name or unit printed) data.
system.tested: T1, Tau peptide Start 419 Stop 438
T1 peptide: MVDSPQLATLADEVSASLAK
method.description: Pepscan ELISA on an array of linear 20-mer Tau 441 peptides
Set-up: unit not given here
reported.endpoint: peptide ELISA signal (no name or unit printed)

1) PT81 monoclonal antibody (recombinant, mouse IgG2a/kappa) (antibody, V domains shown) VH: QVQLQQPGAELVRPGASVILSCKASGYTFTNSWIHWVKQRPGRVLEWIGRIDPNSGGTRYNENFKSKATLTVDKPSSTAYMQLSSLTSEDSAVYFCSRGVLHDYWGQGTTLTVSS VL: DIVITQDELSNPVTSGESVSISCRSSKSLLYKDGKTYLNWFLQRPGQSPQLLIYLMSTRASGVSDRFSVSGSGTDFTLEISRVQAEDVGVYYCQQLVEYPYTFGGGTKLEIKR : 2900
2) hTau60 monoclonal antibody (recombinant, mouse IgG2a/kappa) (antibody, V domains shown, also called hTau60 (PT1B469)) VH: EVQLQQSGPELVKPGTSVKISCKVFGYTFTDYYMNWVKQSHGKSLEWIGDINPDNGETTYNQKFKGKATLTVDKSSSTAYMELRSLTSEDSAVYYCAKGATFVYWGQGTLVTVSA VL: DVVMTQTPLSLPVSLGDQASISCISSQSLVHSTGTTFLHWFLQKPGQSPKLLIYKVSNRFSGVPDRFSGSGSGTDFTLKISRVEAEDLGFYFCSQSTYFPLTFGSGTKLEIKR : 45
